Hi there, I'd appreciate the recorded inhibition of growth at 20 ppm for every entry that follows.
- System: Botryotinia fuckeliana (Botrytis cinerea)
- measurement_protocol: Botryotinia fuckeliana (Botrytis cinerea)/Liquid Culture (Gray Mould)
- Format: cell-based
- protocol_conditions: 72 h, liquid culture, growth inhibition photometrically 3-4 days after application, compared to untreated control

Form: Entry = CC(COc1ccc(F)cc1)(CC(F)(F)F)C(=O)Nc1cnc2c(F)cccc2c1 (centres unmarked) [E.03] | System = Botryotinia fuckeliana (Botrytis cinerea) | inhibition of growth at 20 ppm = ____
≥ 80%

What would you report for CC(COc1cccc(F)c1)(CC(F)(F)F)C(=O)Nc1cnc2c(F)cccc2c1 (centres unmarked) [E.02] ?
≥ 80%

Input CC1(OCC(C)(CC(F)(F)F)C(=O)Nc2cnc3c(F)cccc3c2)CCCC1 (centres unmarked) [E.06]
≥ 80%

Quick one: CC(COC1CCCCC1)(CC(F)(F)F)C(=O)Nc1cnc2c(F)cccc2c1 (centres unmarked) [E.08]
≥ 80%

Input CC(COc1ccccc1F)(CC(F)(F)F)C(=O)Nc1cnc2c(F)cccc2c1 (centres unmarked) [E.01]
≥ 80%

And CC(COC1CCC1)(CC(F)(F)F)C(=O)Nc1cnc2c(F)cccc2c1 (centres unmarked) [E.07] ?
≥ 80%

Moving on to CC(COc1ccc(Cl)cc1)(CC(F)(F)F)C(=O)Nc1cnc2c(F)cccc2c1 (centres unmarked) [E.05]
≥ 80%

Proceed to CC(C)(C)COCC(C)(CC(F)(F)F)C(=O)Nc1cnc2c(F)cccc2c1 (centres unmarked) [E.04]
≥ 80%

All values here come from patent US11744246B2.
